The origin of these recorded values is PubChem BioAssay.

system: R275C; assay: modulators of BK channel variants, profiling panel, selectivity assay, cell-based, U2OS BacMam, thallium flux, beta subunits (AID 1259406); conditions: at 30 µM;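 note: initial slope of Thallos dye fluorescence rise after thallium is added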
The source made the active and inactive calls.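 Rule for the calls: active = thallium flux through the channel raised or lowered by more than 3 SD from vehicle-only wells, actives on both sides; inactive = the rest.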
Classes used: yes = active, no = inactive

[
  {
    "Compound": "CN(C)CC/C=C1/c2ccccc2COc2ccccc21",
    "Discrete label": "no"
  },
  {
    "Compound": "CCCCCCCCCCCCSC(=S)Nc1ccc(Br)c(C)c1",
    "Discrete label": "no"
  },
  {
    "Compound": "C[C@H]1O[C@H](O[C@H]2[C@H](O)[C@@H](O)[C@@H](O[C@H]3[C@H](O)[C@@H](O)C(O)O[C@@H]3CO)O[C@@H]2CO)[C@H](O)[C@@H](O)[C@@H]1N[C@H]1C=C(CO)[C@@H](O)[C@H](O)[C@H]1O (stereo not given in full)",
    "Discrete label": "no"
  },
  {
    "Compound": "Cn1ncc2ccccc2c1=O",
    "Discrete label": "no"
  },
  {
    "Compound": "CSc1nc2cc(Oc3cccc(Cl)c3Cl)c(Cl)cc2[nH]1",
    "Discrete label": "no"
  },
  {
    "Compound": "O=S(=O)(c1ccc(-c2cc(C(F)(F)F)on2)s1)N1CCc2c([nH]c3ccc(F)cc23)C1",
    "Discrete label": "no"
  },
  {
    "Compound": "O=C(NC1CCSC1)c1ccccc1NS(=O)(=O)c1ccccc1 (stereo not given)",
    "Discrete label": "yes"
  },
  {
    "Compound": "O=C(O)CSCC(=O)Nc1ccc(-c2nc3ccccc3s2)cc1",
    "Discrete label": "no"
  },
  {
    "Compound": "CC(=O)N(C(C)=O)c1ccc2c3c(cccc13)CC2",
    "Discrete label": "no"
  },
  {
    "Compound": "Oc1c(Cl)cc(Cl)cc1C=Nc1nccs1",
    "Discrete label": "no"
  }
]

====

experiment: inhibition of 3D7 malaria parasite growth – strain 3D7 (AID 2306); details: P. falciparum 3D7 erythrocytic growth, LDH absorbance, 72 h; at 2 µM; hits give high values
Returns one of met or not met; met when growth inhibition is >= 90%.

[
  {
    "Smiles record": "Cc1[nH]c(C)c(-c2ccc(Cl)cc2)c(=O)c1I",
    "Discrete label": "met"
  },
  {
    "Smiles record": "CNC(=O)c1ccccc1Nc1nc(Nc2cccc(CS(C)(=O)=O)c2)ncc1C",
    "Discrete label": "met"
  },
  {
    "Smiles record": "CCCCCCn1c2c(c(=N)c3c1CCC3)CCC2",
    "Discrete label": "met"
  },
  {
    "Smiles record": "Cc1cc(NC(=O)c2ccsc2)ccc1OC1CCN(Cc2ccc(F)cc2)CC1",
    "Discrete label": "not met"
  }
]

====

biological target: Calcium-dependent protein kinase 1 (Plasmodium falciparum (isolate 3D7)) (UniProt P62344); assay: PfCDPK1 kinase inhibitors, biochemical, TCAMS library (AID 1159585); settings: recombinant PfCDPK1, Kinase-Glo ATP depletion luminescence;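 note: inhibitors leave more ATP so luminescence rises with inhibition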
Sequence (P62344 whole entry, looked up): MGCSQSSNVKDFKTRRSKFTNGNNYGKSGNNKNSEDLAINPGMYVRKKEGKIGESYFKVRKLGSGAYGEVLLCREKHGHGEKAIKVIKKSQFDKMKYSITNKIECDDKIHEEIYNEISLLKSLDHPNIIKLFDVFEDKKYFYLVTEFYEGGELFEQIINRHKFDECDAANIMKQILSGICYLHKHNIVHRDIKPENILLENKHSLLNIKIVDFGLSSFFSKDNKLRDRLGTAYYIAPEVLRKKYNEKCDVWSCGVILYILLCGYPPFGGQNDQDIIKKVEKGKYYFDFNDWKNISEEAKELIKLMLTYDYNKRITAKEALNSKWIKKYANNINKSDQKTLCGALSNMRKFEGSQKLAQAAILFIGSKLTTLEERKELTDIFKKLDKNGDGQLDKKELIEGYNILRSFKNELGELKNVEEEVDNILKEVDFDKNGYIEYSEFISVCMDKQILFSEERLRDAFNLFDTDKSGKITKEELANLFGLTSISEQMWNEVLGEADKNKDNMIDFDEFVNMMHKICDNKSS
Entries with a potency or affinity are not part of this list. The source made the active and inactive calls. The limit is not given here; nearly all actives have IC50 up to about 0.98 µM.

[
  {
    "Compound": "Cc1cc(OCCCN2CCC(NC(=O)c3ccc(Br)cc3)C2)c2ccccc2n1 (stereo not drawn)",
    "Target under test": "Calcium-dependent protein kinase 1 (Plasmodium falciparum (isolate 3D7)) (UniProt P62344)",
    "outcome": "inactive"
  },
  {
    "Compound": "CC(C)CCNc1nc(NCc2ccccc2)c2cc(O)ccc2n1",
    "Target under test": "Calcium-dependent protein kinase 1 (Plasmodium falciparum (isolate 3D7)) (UniProt P62344)",
    "outcome": "inactive"
  },
  {
    "Compound": "CCOc1cc2ncnc(Nc3ccc(OCc4c(Cl)cccc4Cl)c(OC)c3)c2cc1OCC",
    "Target under test": "Calcium-dependent protein kinase 1 (Plasmodium falciparum (isolate 3D7)) (UniProt P62344)",
    "outcome": "inactive"
  },
  {
    "Compound": "CC(=O)Nc1ccc(S(=O)(=O)NC2=NC(C)(C)N(OCc3ccc(Cl)c(Cl)c3)C(N)=N2)cc1",
    "Target under test": "Calcium-dependent protein kinase 1 (Plasmodium falciparum (isolate 3D7)) (UniProt P62344)",
    "outcome": "inactive"
  },
  {
    "Compound": "O=C(Nc1ccc(-c2nc3ccccc3[nH]2)cc1)C1CCN(Cc2ccccc2)CC1",
    "Target under test": "Calcium-dependent protein kinase 1 (Plasmodium falciparum (isolate 3D7)) (UniProt P62344)",
    "outcome": "inactive"
  },
  {
    "Compound": "COc1ccccc1CCNc1nc(C)cc(N[C@@H](Cc2ccccc2)C(=O)Nc2ccccc2)n1",
    "Target under test": "Calcium-dependent protein kinase 1 (Plasmodium falciparum (isolate 3D7)) (UniProt P62344)",
    "outcome": "inactive"
  },
  {
    "Compound": "CCCC(C)NC[C@@H](O)[C@H](Cc1ccccc1)NC(=O)c1cc(NCC)cc(N2CCCCS2(=O)=O)c1 (stereo partly drawn)",
    "Target under test": "Calcium-dependent protein kinase 1 (Plasmodium falciparum (isolate 3D7)) (UniProt P62344)",
    "outcome": "inactive"
  },
  {
    "Compound": "Cc1nc(NCc2ccccc2)cc(Nc2cc(NCc3ccccc3)nc(C)n2)n1",
    "Target under test": "Calcium-dependent protein kinase 1 (Plasmodium falciparum (isolate 3D7)) (UniProt P62344)",
    "outcome": "inactive"
  },
  {
    "Compound": "Cc1cc(NC2CCCC2)nc(Nc2ccccc2F)n1",
    "Target under test": "Calcium-dependent protein kinase 1 (Plasmodium falciparum (isolate 3D7)) (UniProt P62344)",
    "outcome": "inactive"
  },
  {
    "Compound": "CN(C)C(=O)CN1CCN(c2ncnc(N3CCc4c([nH]c5ccccc45)[C@@H]3c3ccc4c(c3)CCO4)n2)CC1",
    "Target under test": "Calcium-dependent protein kinase 1 (Plasmodium falciparum (isolate 3D7)) (UniProt P62344)",
    "outcome": "inactive"
  },
  {
    "Compound": "Cc1ccc(C(=O)N2CCN(Cc3nccs3)CC2)cc1",
    "Target under test": "Calcium-dependent protein kinase 1 (Plasmodium falciparum (isolate 3D7)) (UniProt P62344)",
    "outcome": "inactive"
  },
  {
    "Compound": "CCOC(=O)c1c(SCc2cccc(F)c2F)[nH]c2ccccc2c1=O",
    "Target under test": "Calcium-dependent protein kinase 1 (Plasmodium falciparum (isolate 3D7)) (UniProt P62344)",
    "outcome": "inactive"
  },
  {
    "Compound": "CCCNCc1ccc(-c2ccc(CN(C(=O)c3nn(-c4ccccc4)nc3C)C3CC3)cc2)nc1",
    "Target under test": "Calcium-dependent protein kinase 1 (Plasmodium falciparum (isolate 3D7)) (UniProt P62344)",
    "outcome": "inactive"
  },
  {
    "Compound": "CCC(=C(CC)c1ccc(O)c(CNC2CCCCC2)c1)c1ccc(O)c(CNC2CCCCC2)c1",
    "Target under test": "Calcium-dependent protein kinase 1 (Plasmodium falciparum (isolate 3D7)) (UniProt P62344)",
    "outcome": "inactive"
  },
  {
    "Compound": "Nc1ncc(-c2ccc(Br)cc2)c(N)n1",
    "Target under test": "Calcium-dependent protein kinase 1 (Plasmodium falciparum (isolate 3D7)) (UniProt P62344)",
    "outcome": "inactive"
  },
  {
    "Compound": "CCN(CC)CCCN(C(=O)Nc1cc(F)cc(F)c1)c1nc(-c2ccc(F)cc2)cs1",
    "Target under test": "Calcium-dependent protein kinase 1 (Plasmodium falciparum (isolate 3D7)) (UniProt P62344)",
    "outcome": "inactive"
  },
  {
    "Compound": "COc1ccc(CN2CCCN(Cc3cccc(NC(=O)c4ccc5ccccc5c4)c3)CC2)cc1",
    "Target under test": "Calcium-dependent protein kinase 1 (Plasmodium falciparum (isolate 3D7)) (UniProt P62344)",
    "outcome": "inactive"
  },
  {
    "Compound": "Cc1ccn2c(N(Cc3ccccc3)C(=O)c3ccc(Cl)c(Cl)c3)c(-c3ccccc3)nc2c1",
    "Target under test": "Calcium-dependent protein kinase 1 (Plasmodium falciparum (isolate 3D7)) (UniProt P62344)",
    "outcome": "inactive"
  },
  {
    "Compound": "COc1cccc2c(O)c(CNC3CCCCC3)ccc12",
    "Target under test": "Calcium-dependent protein kinase 1 (Plasmodium falciparum (isolate 3D7)) (UniProt P62344)",
    "outcome": "inactive"
  },
  {
    "Compound": "CCOC(=O)c1c(-c2ccccc2)c(C(=O)OCC)n2ccccc12",
    "Target under test": "Calcium-dependent protein kinase 1 (Plasmodium falciparum (isolate 3D7)) (UniProt P62344)",
    "outcome": "inactive"
  },
  {
    "Compound": "CCc1c(CCNCCCCCCNCCc2ccc(OC)cc2)ccc(OC)c1OC",
    "Target under test": "Calcium-dependent protein kinase 1 (Plasmodium falciparum (isolate 3D7)) (UniProt P62344)",
    "outcome": "inactive"
  },
  {
    "Compound": "CCCN(c1ccc(O)c(CN2CCCCC2)c1)c1ccc([N+](=O)[O-])cn1",
    "Target under test": "Calcium-dependent protein kinase 1 (Plasmodium falciparum (isolate 3D7)) (UniProt P62344)",
    "outcome": "inactive"
  },
  {
    "Compound": "CN(c1ccc2c(c1)nc(NCc1ccc(F)cc1)n2C)c1ccnc(Nc2ccc(CS(C)(=O)=O)cc2)n1",
    "Target under test": "Calcium-dependent protein kinase 1 (Plasmodium falciparum (isolate 3D7)) (UniProt P62344)",
    "outcome": "inactive"
  },
  {
    "Compound": "Cc1nn(-c2ccccc2)nc1C(=O)N(Cc1ccc(-c2ccc(CNCCc3ccc(S(C)(=O)=O)cc3)cn2)cc1)C1CC1",
    "Target under test": "Calcium-dependent protein kinase 1 (Plasmodium falciparum (isolate 3D7)) (UniProt P62344)",
    "outcome": "inactive"
  },
  {
    "Compound": "CCCNC(=O)c1cncc(-c2ccc(CNC(CC)c3ccccc3)cc2)c1 (stereo not drawn)",
    "Target under test": "Calcium-dependent protein kinase 1 (Plasmodium falciparum (isolate 3D7)) (UniProt P62344)",
    "outcome": "inactive"
  },
  {
    "Compound": "CCN(Cc1cccc2ccccc12)c1ccc2nc(N)nc(N)c2c1",
    "Target under test": "Calcium-dependent protein kinase 1 (Plasmodium falciparum (isolate 3D7)) (UniProt P62344)",
    "outcome": "inactive"
  },
  {
    "Compound": "CC(CN(C)C)C(=O)Nc1ccc(-c2ccc(-c3nc4ccc(C(F)(F)F)cc4[nH]3)cc2)cc1 (stereo not drawn)",
    "Target under test": "Calcium-dependent protein kinase 1 (Plasmodium falciparum (isolate 3D7)) (UniProt P62344)",
    "outcome": "inactive"
  },
  {
    "Compound": "FC(F)(F)Oc1ccc(-c2cnc3ccc(NCc4ccncc4)nn23)cc1",
    "Target under test": "Calcium-dependent protein kinase 1 (Plasmodium falciparum (isolate 3D7)) (UniProt P62344)",
    "outcome": "inactive"
  },
  {
    "Compound": "Nc1ncc(-c2ccc(S(=O)(=O)Nc3ccc(C(=O)N[C@@H](CCC(=O)O)C(=O)O)cc3)cc2)c(=O)[nH]1",
    "Target under test": "Calcium-dependent protein kinase 1 (Plasmodium falciparum (isolate 3D7)) (UniProt P62344)",
    "outcome": "inactive"
  },
  {
    "Compound": "CC(C)(C)c1ccc2nc(-c3ccc(C(=O)NCc4cccc(C(F)(F)F)c4)cc3)[nH]c2c1",
    "Target under test": "Calcium-dependent protein kinase 1 (Plasmodium falciparum (isolate 3D7)) (UniProt P62344)",
    "outcome": "inactive"
  },
  {
    "Compound": "Cc1c(C(=O)Nc2cc(Sc3ccc(F)cc3)cc([N+](=O)[O-])c2)sc2ncn(Cc3cccc(F)c3)c(=O)c12",
    "Target under test": "Calcium-dependent protein kinase 1 (Plasmodium falciparum (isolate 3D7)) (UniProt P62344)",
    "outcome": "inactive"
  },
  {
    "Compound": "COc1ccc2nccc([C@@H](O)CN3CCC(NCCOc4cc(F)cc(F)c4)CC3)c2c1",
    "Target under test": "Calcium-dependent protein kinase 1 (Plasmodium falciparum (isolate 3D7)) (UniProt P62344)",
    "outcome": "inactive"
  },
  {
    "Compound": "O=C(Nc1ccc(-c2ccc(-c3nc4ccc(C(F)(F)F)cc4[nH]3)s2)cc1)c1cnc[nH]1",
    "Target under test": "Calcium-dependent protein kinase 1 (Plasmodium falciparum (isolate 3D7)) (UniProt P62344)",
    "outcome": "inactive"
  },
  {
    "Compound": "Nc1nc2ccc(CNc3ccc(C(=O)N[C@@H](CCC(=O)O)C(=O)O)cc3)cc2c(=O)[nH]1",
    "Target under test": "Calcium-dependent protein kinase 1 (Plasmodium falciparum (isolate 3D7)) (UniProt P62344)",
    "outcome": "inactive"
  },
  {
    "Compound": "O=C(N[C@@H](Cc1ccccc1)[C@H](O)CNC1CCOCC1)c1cc(C2CCCC2)cc(N2CCCCS2(=O)=O)c1",
    "Target under test": "Calcium-dependent protein kinase 1 (Plasmodium falciparum (isolate 3D7)) (UniProt P62344)",
    "outcome": "inactive"
  },
  {
    "Compound": "Cc1cccc(-c2cccc(CNc3nc(NCCc4ccc(O)cc4)nc(N4CCNCC4)n3)c2)c1",
    "Target under test": "Calcium-dependent protein kinase 1 (Plasmodium falciparum (isolate 3D7)) (UniProt P62344)",
    "outcome": "inactive"
  },
  {
    "Compound": "Nc1ccncc1C(=O)NCCCCN1CCN(c2nsc3ccccc23)CC1",
    "Target under test": "Calcium-dependent protein kinase 1 (Plasmodium falciparum (isolate 3D7)) (UniProt P62344)",
    "outcome": "inactive"
  },
  {
    "Compound": "CC[C@H](NC(=O)c1c(CC2CCN(CC(C)=O)CC2)c(-c2ccccc2)nc2ccccc12)c1ccccc1",
    "Target under test": "Calcium-dependent protein kinase 1 (Plasmodium falciparum (isolate 3D7)) (UniProt P62344)",
    "outcome": "inactive"
  }
]
